Molecular target: 17β-HSD10 (Homo sapiens, UniProt Q99714)
Construct: expressed in transfected cells
Sequence (Q99714 whole entry): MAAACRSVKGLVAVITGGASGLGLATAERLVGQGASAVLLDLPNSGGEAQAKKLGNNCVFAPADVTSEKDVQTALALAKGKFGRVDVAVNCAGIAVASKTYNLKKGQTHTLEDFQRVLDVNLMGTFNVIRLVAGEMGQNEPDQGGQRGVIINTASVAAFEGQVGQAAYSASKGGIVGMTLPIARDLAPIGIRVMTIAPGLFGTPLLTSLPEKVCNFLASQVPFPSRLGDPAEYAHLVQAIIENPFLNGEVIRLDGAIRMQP
Experiment: Inhibition of 17β-HSD10 in stably transfected HEK-293 whole cells (E2 into E1)
Assay type: cell-based
Settings: HEK293; [14C]-E2 (1 μM) into [14C]-E1, intact HEK-293 cells, 1 μM; read-out: Inhibition (%) at 1 μM
Quick rule for you: inhibition at 1 µM at 30% or higher means fulfilled, lower means not fulfilled.

COc1cccc(CN2CCN(C[C@@]3(O)CC[C@@]4(C)[C@@H](CC[C@@H]5[C@@H]4CC[C@]4(C)C(=O)CC[C@@H]54)C3)CC2)c1 [Compound 10f] = fulfilled

Textbook exercise: given the entry C[C@]12CC[C@](O)(CN3CCN(Cc4cccc(C(F)(F)F)c4)CC3)C[C@@H]1CC[C@@H]1[C@@H]2CC[C@]2(C)C(=O)CC[C@@H]12 [Compound 10a] , state whether its inhibition at 1 µM is greater than or equal to 30%.
fulfilled

Textbook exercise: given the entry C[C@]12CC[C@](O)(CN3CCN(S(=O)(=O)c4cccc(C(F)(F)F)c4)CC3)C[C@@H]1CC[C@@H]1[C@@H]2CC[C@]2(C)C(=O)CC[C@@H]12 [Compound 14a] , state whether its inhibition at 1 µM is greater than or equal to 30%.
not fulfilled

Textbook exercise: given the entry C[C@]12CC[C@](O)(CN3CCN(C(=O)c4ccccc4C(F)(F)F)CC3)C[C@@H]1CC[C@@H]1[C@@H]2CC[C@]2(C)C(=O)CC[C@@H]12 [Compound 12c] , state whether its inhibition at 1 µM is greater than or equal to 30%.
fulfilled

Textbook exercise: given the entry C[C@]12CC[C@](O)(CN3CCN(S(=O)(=O)c4ccccc4C(F)(F)F)CC3)C[C@@H]1CC[C@@H]1[C@@H]2CC[C@]2(C)C(=O)CC[C@@H]12 [Compound 14b] , state whether its inhibition at 1 µM is greater than or equal to 30%.
fulfilled

Textbook exercise: given the entry C[C@]12CC[C@](O)(CN3CCN(Cc4cccc(SC(F)(F)F)c4)CC3)C[C@@H]1CC[C@@H]1[C@@H]2CC[C@]2(C)C(=O)CC[C@@H]12 [Compound 10d] , state whether its inhibition at 1 µM is greater than or equal to 30%.
not fulfilled

Textbook exercise: given the entry COc1cccc(CN2CC(C)N(C[C@@]3(O)CC[C@@]4(C)[C@@H](CC[C@@H]5[C@@H]4CC[C@]4(C)C(=O)CC[C@@H]54)C3)CC2C)c1 (some centres unmarked) [Compound 11f] , state whether its inhibition at 1 µM is greater than or equal to 30%.
not fulfilled

Textbook exercise: given the entry C[C@]12CC[C@](O)(CN3CCN(Cc4ccccc4C(F)(F)F)CC3)C[C@@H]1CC[C@@H]1[C@@H]2CC[C@]2(C)C(=O)CC[C@@H]12 [Compound 10b] , state whether its inhibition at 1 µM is greater than or equal to 30%.
fulfilled
